Test system: UniProt:P41595
Sequence (P41595 whole entry): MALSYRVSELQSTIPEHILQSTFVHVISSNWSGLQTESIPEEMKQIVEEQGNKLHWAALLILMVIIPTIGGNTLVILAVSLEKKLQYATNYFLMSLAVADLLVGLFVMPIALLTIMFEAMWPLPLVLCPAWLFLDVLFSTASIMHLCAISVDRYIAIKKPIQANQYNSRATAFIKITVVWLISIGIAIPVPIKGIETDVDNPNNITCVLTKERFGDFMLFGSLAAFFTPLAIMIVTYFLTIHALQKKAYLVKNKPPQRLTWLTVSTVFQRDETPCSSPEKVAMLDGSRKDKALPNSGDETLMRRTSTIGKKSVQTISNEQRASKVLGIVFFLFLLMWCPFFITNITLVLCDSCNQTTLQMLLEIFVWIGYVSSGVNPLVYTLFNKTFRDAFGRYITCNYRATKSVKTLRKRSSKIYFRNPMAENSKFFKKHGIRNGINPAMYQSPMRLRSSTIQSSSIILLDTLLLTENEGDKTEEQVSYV
Readout kind: Ki (µM)
Numbers only, in µM.

**Query** Given "COc1ccc2cccc(CCNC(C)=O)c2c1" , state its recorded Ki.
**Result** 0.257
